- experimental_target: recombinant PRL-2 (Homo sapiens, UniProt Q12974)
- Construct: 6xHis (N, cleaved yes); made in house; host or cells: E. coli One Shot BL21 Star
- protocol_text: In vitro phosphatase assay (DiFMUP hydrolysis), PRL-2
- Format: biochemical
- condition_context: FDA-approved drug screen; compared to DMSO
Structures can show the parent of a compound that is named as a salt.
compounds and their reported % Phosphatase Activity (compared to DMSO) PRL-2
measured_quantity: % Phosphatase Activity (compared to DMSO) PRL-2

# compound, assay_result
records = [
    ("CC1(C)S[C@@H]2[C@H](NC(=O)[C@H](NC(=O)N3CCN(S(C)(=O)=O)C3=O)c3ccccc3)C(=O)N2[C@H]1C(=O)O [Mezlocillin Sodium]", "91%"),
    ("COc1cccc2c1C(=O)c1c(O)c3c(c(O)c1C2=O)C[C@@](O)(C(C)=O)C[C@@H]3O[C@H]1C[C@H](N)[C@H](O)[C@H](C)O1 [Daunorubicin HCl]", "92%"),
    ("c1ccc2c(CC3=NCCN3)cccc2c1 [Naphazoline HCl]", "102%"),
    ("Cc1ccc([C@@H]2O[C@H](CO)[C@@H](O)[C@H](O)[C@H]2O)cc1Cc1ccc(-c2ccc(F)cc2)s1", "106%"),
    ("CNC(=O)c1ccccc1Sc1ccc2c(/C=C/c3ccccn3)n[nH]c2c1", "164%"),
    ("CC(=O)O[C@]1(C(C)=O)CC[C@H]2[C@@H]3C=C(C)C4=CC(=O)CC[C@]4(C)[C@H]3CC[C@@]21C [Megestrol Acetate]", "92%"),
    ("CC(=O)SCC(Cc1ccccc1)C(=O)NCC(=O)OCc1ccccc1 (centres unmarked)", "99%"),
    ("COCCc1ccc(OCC(O)CNC(C)C)cc1 (centres unmarked) [Metoprolol Tartrate]", "109%"),
]

* * *

Some molecules, each annotated with its measured % Phosphatase Activity (compared to DMSO) PRL-2.
- experimental_target: recombinant PRL-2 (Homo sapiens, UniProt Q12974)
- Construct: 6xHis (N, cleaved yes); made in house; host or cells: E. coli One Shot BL21 Star
- Sequence (Q12974 1-167): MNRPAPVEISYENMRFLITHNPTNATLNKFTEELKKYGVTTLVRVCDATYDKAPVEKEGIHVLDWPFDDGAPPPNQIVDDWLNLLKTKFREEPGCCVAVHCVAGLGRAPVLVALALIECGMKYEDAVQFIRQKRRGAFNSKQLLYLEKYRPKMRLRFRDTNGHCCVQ
- protocol_text: In vitro phosphatase assay (DiFMUP hydrolysis), PRL-2;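 also: PRL-2 activity read as DiFMUP hydrolysis after 20 min at room temperature with drug, enzyme first pre-reduced at 4 °C for 20 min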
- Assay type: biochemical
- condition_context: FDA-approved drug screen; activity compared to DMSO
Structures can show the parent of a compound that is named as a salt.
measured_quantity: % Phosphatase Activity (compared to DMSO) PRL-2 (%)

# molecule, experimental_target, assay_result
measured = [
    ("Cl.O=C1Cc2cc(CCN3CCN(c4nsc5ccccc45)CC3)c(Cl)cc2N1 [Ziprasidone HCl]", "recombinant PRL-2 (Homo sapiens, UniProt Q12974)", 91),
    ("C[C@@H]1CCN(C(=O)CC#N)C[C@@H]1N(C)c1ncnc2[nH]ccc12 [Tofacitinib (CP-690550,Tasocitinib)]", "recombinant PRL-2 (Homo sapiens, UniProt Q12974)", 114),
    ("O=C(O[C@H]1CN2CCC1CC2)N1CCc2ccccc2[C@@H]1c1ccccc1 [Solifenacin succinate]", "recombinant PRL-2 (Homo sapiens, UniProt Q12974)", 99),
    ("Nc1ccc(S(=O)(=O)Nc2ccccn2)cc1 [Sulfapyridine]", "recombinant PRL-2 (Homo sapiens, UniProt Q12974)", 113),
    ("Nc1ccn([C@H]2CC[C@@H](CO)O2)c(=O)n1 [Zalcitabine]", "recombinant PRL-2 (Homo sapiens, UniProt Q12974)", 105),
    ("CC(C)OC(=O)[C@H](C)N[P@](=O)(OC[C@H]1O[C@@H](n2ccc(=O)[nH]c2=O)[C@](C)(F)[C@@H]1O)Oc1ccccc1 [Sofosbuvir (PSI-7977, GS-7977)]", "recombinant PRL-2 (Homo sapiens, UniProt Q12974)", 96),
    ("Cc1cc(-n2c(=O)[nH]c(=O)n(C)c2=O)ccc1Oc1ccc(SC(F)(F)F)cc1 [Toltrazuril]", "recombinant PRL-2 (Homo sapiens, UniProt Q12974)", 93),
    ("COc1ccc(/C=C/C(=O)Nc2ccccc2C(=O)O)cc1OC [Tranilast]", "recombinant PRL-2 (Homo sapiens, UniProt Q12974)", 73),
    ("Cc1cn([C@H]2C[C@H](N=[N+]=[N-])[C@@H](CO)O2)c(=O)[nH]c1=O [Zidovudine]", "recombinant PRL-2 (Homo sapiens, UniProt Q12974)", 112),
    ("Cn1c(=O)cc(N2CCC[C@@H](N)C2)n(Cc2cc(F)ccc2C#N)c1=O [Trelagliptin]", "recombinant PRL-2 (Homo sapiens, UniProt Q12974)", 76),
    ("CCN(CC)CCNC(=O)c1c(C)[nH]c(/C=C2\\C(=O)Nc3ccc(F)cc32)c1C [Sunitinib]", "recombinant PRL-2 (Homo sapiens, UniProt Q12974)", 42),
    ("Nc1ccc(C(=O)NCC(=O)[O-])cc1.O.[Na+] [Sodium 4-aminohippurate Hydrate]", "recombinant PRL-2 (Homo sapiens, UniProt Q12974)", 87),
    ("CC(=O)[C@@]1(O)CC[C@H]2[C@@H]3CCC4=CC(=O)CCC4=C3[C@@H](c3ccc(N(C)C)cc3)C[C@@]21C [Ulipristal]", "recombinant PRL-2 (Homo sapiens, UniProt Q12974)", 92),
    ("NC[C@H]1CC[C@H](C(=O)O)CC1 [Tranexamic Acid]", "recombinant PRL-2 (Homo sapiens, UniProt Q12974)", 89),
    ("CCCc1nn(C)c2c(=O)[nH]c(-c3cc(S(=O)(=O)N4CCN(C)CC4)ccc3OCC)nc12 [Sildenafil]", "recombinant PRL-2 (Homo sapiens, UniProt Q12974)", 72),
    ("CC[C@]1(O)C[C@H]2CN(CCc3c([nH]c4ccccc34)[C@@](C(=O)OC)(c3cc4c(cc3OC)N(C=O)[C@H]3[C@@](O)(C(=O)OC)[C@H](OC(C)=O)[C@]5(CC)C=CCN6CC[C@]43[C@@H]65)C2)C1 [Vincristine]", "recombinant PRL-2 (Homo sapiens, UniProt Q12974)", 100),
    ("Nc1ccc(C(=O)[O-])c(O)c1.[Na+] [Sodium 4-Aminosalicylate]", "recombinant PRL-2 (Homo sapiens, UniProt Q12974)", 119),
    ("Cc1ccc(C(=O)c2ccc(CC(=O)O)n2C)cc1 [Tolmetin Sodium]", "recombinant PRL-2 (Homo sapiens, UniProt Q12974)", 79),
    ("Cc1ccsc1C(=CCCN1CCC[C@@H](C(=O)O)C1)c1sccc1C [Tiagabine]", "recombinant PRL-2 (Homo sapiens, UniProt Q12974)", 104),
    ("Nc1ccc(S(=O)(=O)Nc2nccs2)cc1 [Sulfathiazole]", "recombinant PRL-2 (Homo sapiens, UniProt Q12974)", 114),
    ("Cc1ccnc(NS(=O)(=O)c2ccc(N)cc2)n1 [Sulfamerazine]", "recombinant PRL-2 (Homo sapiens, UniProt Q12974)", 108),
    ("C[C@@H](c1ncncc1F)[C@](O)(Cn1cncn1)c1ccc(F)cc1F [Voriconazole]", "recombinant PRL-2 (Homo sapiens, UniProt Q12974)", 92),
    ("CC(C)(C)C(=O)Oc1ccc(S(=O)(=O)Nc2ccccc2C(=O)NCC(=O)O)cc1 [Sivelestat sodium]", "recombinant PRL-2 (Homo sapiens, UniProt Q12974)", 86),
    ("CC(C)(C)NCC(O)c1cc(O)cc(O)c1 (stereo not shown) [Terbutaline Sulfate]", "recombinant PRL-2 (Homo sapiens, UniProt Q12974)", 97),
    ("CCC[C@H](NC(=O)[C@@H]1[C@H]2CCC[C@H]2CN1C(=O)[C@@H](NC(=O)[C@@H](NC(=O)c1cnccn1)C1CCCCC1)C(C)(C)C)C(=O)C(=O)NC1CC1 [Telaprevir (VX-950)]", "recombinant PRL-2 (Homo sapiens, UniProt Q12974)", 104),
    ("CNC(=O)c1cc(Oc2ccc(NC(=O)Nc3ccc(Cl)c(C(F)(F)F)c3)cc2)ccn1 [Sorafenib]", "recombinant PRL-2 (Homo sapiens, UniProt Q12974)", 80),
    ("NC[C@H]1O[C@H](O[C@H]2[C@H](O)[C@@H](O[C@H]3O[C@H](CO)[C@@H](O)[C@H](N)[C@H]3O)[C@H](N)C[C@@H]2N)[C@H](N)C[C@@H]1O [Tobramycin]", "recombinant PRL-2 (Homo sapiens, UniProt Q12974)", 97),
    ("Cc1ccc(-c2nc3ccc(C)cn3c2CC(=O)N(C)C)cc1 [Zolpidem]", "recombinant PRL-2 (Homo sapiens, UniProt Q12974)", 97),
    ("CC1=C(CC(=O)O)c2cc(F)ccc2/C1=C\\c1ccc([S+](C)[O-])cc1 (stereo not shown) [Sulindac]", "recombinant PRL-2 (Homo sapiens, UniProt Q12974)", 96),
    ("CCOc1ccc(Cc2cc([C@@H]3O[C@H](SC)[C@@H](O)[C@H](O)[C@H]3O)ccc2Cl)cc1 [Sotagliflozin (LX4211)]", "recombinant PRL-2 (Homo sapiens, UniProt Q12974)", 88),
    ("CC(C)OC(=O)OCOP(=O)(CO[C@H](C)Cn1cnc2c(N)ncnc21)OCOC(=O)OC(C)C [Tenofovir Disoproxil Fumarate]", "recombinant PRL-2 (Homo sapiens, UniProt Q12974)", 93),
]

Numbers sourced from paper PMC8119466.
